Test system: breast cancer cell lines
Assay: Cell growth inhibition assay (Cell Titer Glo, 72 h drug exposure, GI50) across a breast cancer cell line panel, with subtype, copy number and growth rate association analysis
Format: cell-based, human
Details: Table 7 summary
readout_name: Molecular Subtype in which the compound shows Preferential Activity

> print(dat)
                                   molecule    endpoint.result
1               O=C(CCCCCCC(=O)Nc1ccccc1)NO  Luminal (ER+/PR+)
2  CC(/C=C/C(=O)NO)=C\[C@@H](C)C(=O)c1ccc(N(C)C)cc1  Luminal (ER+/PR+)

The values you see were collected from patent US9506926B2.
